target: AgBzz1-D2; experiment: SPOT peptide array binding signal intensity (averaged, normalized) (arbitrary units (background-subtracted, floor 0; scale differs between SH3 domains)); higher = stronger binding of the SH3 domain to the peptide
Threshold check on SPOT peptide array binding signal intensity: at or above 40 gives Criterion met, strictly below gives Criterion not met.

Example results:
| binder | qualitative_label |
| --- | --- |
| GPPPPLPPPLFPSSS | Criterion not met |
| AATTSTPPLPRRRAT | Criterion met |
| KNRKNLPTIPIRLSG | Criterion not met |
| VRVKKRPLIRPLNSS | Criterion met |

Please turn your attention to the following entry.
Determine whether measured SPOT peptide array binding signal intensity meets or exceeds 40 for ALRRRLPVTRSKINW
Criterion met

Entry source: the supplement of paper PMC4466140
